Please go through the items and note down their IC50 for inhibition of collagen induced platelet aggregation (human PRP), Test 1.
tested_on: T1, human GPVI on platelets (human, UniProt Q9HCN6 21-339)
T1 sequence (looked up): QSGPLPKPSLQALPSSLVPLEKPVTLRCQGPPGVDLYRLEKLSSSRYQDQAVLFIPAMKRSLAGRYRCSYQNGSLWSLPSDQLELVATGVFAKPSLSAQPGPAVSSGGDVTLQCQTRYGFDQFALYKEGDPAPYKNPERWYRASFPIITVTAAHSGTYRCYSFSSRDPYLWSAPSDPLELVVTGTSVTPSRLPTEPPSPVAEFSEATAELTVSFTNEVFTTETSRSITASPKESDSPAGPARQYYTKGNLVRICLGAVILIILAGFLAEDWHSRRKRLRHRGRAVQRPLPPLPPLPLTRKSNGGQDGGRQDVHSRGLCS
assay_name: cell-based or functional assay
Respond with the bare value in µg/mL.

Problem: Fill in the blank: the reported IC50 for inhibition of collagen induced platelet aggregation (human PRP), Test 1 of humanized anti-GPVI Fab VL3/VH4 (Fab, V domains shown, Recombinant Fab: VH fused to CH1 of human IGHG1 (Q569F4), HC ends in DKTHT; also called VL3 with VH4) VH: QVQLQESGPGLVAPSQSLSITCTVSGFSLTYYGVNWVRQPPSRGLEWLGMIWGDGSTDYQSTLKSRLSISKDNSKSQVFLKMNSLTTDDTARYYCARDLPMDYWGQGTSVTVSS VL: DIQMTQSPSSLSASVGGRVTITCKASQDINKYIAWYQHKPGKGPSLLIHYTSTLQPGVPSRFSGSGSGRDYSFSISNLQPEDIATYYCLQYALLLTFGGGTKLEIKR is ____.
Result: 1

Problem: Fill in the blank: the reported IC50 for inhibition of collagen induced platelet aggregation (human PRP), Test 1 of humanized anti-GPVI Fab VL1/VH2 (Fab, V domains shown, Recombinant Fab: VH fused to CH1 of human IGHG1 (Q569F4), HC ends in DKTHT; VL fused to human constant kappa (Q502W4); also called VL1 with VH2) VH: QVQLQESGPGLVAPSQSLSITCTVSGFSLTGYGVNWVRQPPSRGLEWLGMIWGDGSTDYQSTLKSRLSISKDNSKSQVFLKMNSLTTDDTARYYCARDLPMDYWGQGTSVTVSS VL: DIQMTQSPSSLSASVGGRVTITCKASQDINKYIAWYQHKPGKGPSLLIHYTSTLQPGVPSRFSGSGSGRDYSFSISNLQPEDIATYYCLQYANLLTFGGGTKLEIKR is ____.
Result: 2.3
